# tgt: EPHB1 (UniProt P54762)
# Sequence (P54762 whole entry, looked up): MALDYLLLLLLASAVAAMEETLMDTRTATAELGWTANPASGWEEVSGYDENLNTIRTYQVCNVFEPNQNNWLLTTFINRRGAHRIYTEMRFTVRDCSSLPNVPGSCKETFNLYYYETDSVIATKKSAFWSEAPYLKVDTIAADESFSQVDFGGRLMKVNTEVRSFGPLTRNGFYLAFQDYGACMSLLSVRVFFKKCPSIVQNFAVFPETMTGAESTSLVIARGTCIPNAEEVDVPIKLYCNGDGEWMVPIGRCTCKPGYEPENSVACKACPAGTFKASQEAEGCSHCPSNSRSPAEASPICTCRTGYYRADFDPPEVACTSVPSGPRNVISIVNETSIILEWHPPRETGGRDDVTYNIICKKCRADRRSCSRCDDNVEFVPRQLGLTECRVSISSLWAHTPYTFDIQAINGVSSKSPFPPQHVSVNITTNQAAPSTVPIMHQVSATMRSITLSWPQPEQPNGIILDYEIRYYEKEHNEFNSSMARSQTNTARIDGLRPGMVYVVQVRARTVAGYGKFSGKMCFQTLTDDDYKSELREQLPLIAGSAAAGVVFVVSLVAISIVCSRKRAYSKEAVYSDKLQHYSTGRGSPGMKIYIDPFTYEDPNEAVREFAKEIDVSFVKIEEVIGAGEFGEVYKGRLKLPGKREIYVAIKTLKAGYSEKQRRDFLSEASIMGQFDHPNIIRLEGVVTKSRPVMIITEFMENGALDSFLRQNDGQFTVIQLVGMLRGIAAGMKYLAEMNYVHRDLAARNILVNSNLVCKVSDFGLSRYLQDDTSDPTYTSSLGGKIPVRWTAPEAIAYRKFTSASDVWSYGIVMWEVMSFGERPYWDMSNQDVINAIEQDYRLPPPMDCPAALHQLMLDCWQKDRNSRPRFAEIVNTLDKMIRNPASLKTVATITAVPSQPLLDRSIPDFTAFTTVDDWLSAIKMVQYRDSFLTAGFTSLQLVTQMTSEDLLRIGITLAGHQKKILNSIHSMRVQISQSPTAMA
# experimental-protocol: phosphorylation enrichment, bacterial display (enrichment ratio); higher = better substrate or ligand; peptides without Tyr show the background;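 also: 11-residue human phosphosite peptides and single-mutation variants displayed on the E. coli surface, counted by deep sequencing, each peptide's frequency after selection divided by its frequency in the unselected input library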;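 also: frequency after pTyr selection over input frequency; kinase dosed for 20-30% of maximal phosphorylation in three min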
property-label: phosphorylation enrichment
Output spec: single numeric token, no unit.

{"record-sequence": "VSSPKYGGDDE [TMCC2_Y473_S475G]", "property-label": "phosphorylation enrichment", "numeric-value": 0.437}
{"record-sequence": "KKIMGYSIRTI [IDS_Y490_I485K]", "property-label": "phosphorylation enrichment", "numeric-value": 0.41}
{"record-sequence": "IGEGTYRQVFK [CDK13_Y716_G717R_YF]", "property-label": "phosphorylation enrichment", "numeric-value": 0.603}
{"record-sequence": "DSIRDYEDGTE [CLNS1A_Y214_M218T]", "property-label": "phosphorylation enrichment", "numeric-value": 0.784}
{"record-sequence": "ENELTYFCCKK [CD59_Y86_YF]", "property-label": "phosphorylation enrichment", "numeric-value": 0.465}

FFRDGHMPRQF [GSS_Y270_Y270H_YF] has a reported phosphorylation enrichment of 0.367

WSRAMYPDLGP [STARD8_Y330] has a reported phosphorylation enrichment of 0.396

HTDDGYMPMSP [IRS1_Y612] has a reported phosphorylation enrichment of 0.787

YQLENCCNGGG [INS_Y108_Y108C] has a reported phosphorylation enrichment of 1.05

FGGLRYGFGGL [KRTAP20-2_Y13_V17G_YF] has a reported phosphorylation enrichment of 0.445

---

# Test system: c-Src
# experimental-protocol: phosphorylation enrichment, bacterial display (enrichment ratio); higher = better substrate or ligand; peptides without Tyr show the background
Measured phosphorylation enrichment by item

Here's what some known entries look like.
{"record-sequence": "GFVEDYRPPFF [ACVRL1_Y421_I417F_YF]", "result": 0.501}
{"record-sequence": "LGRTRYQDVTG [MIPEP_Y510_H512D]", "result": 0.584}
{"record-sequence": "FHLGKYLQEVL [KLB_Y910_Y906H_YF]", "result": 0.491}
{"record-sequence": "PGPPGYCDSSQ [COL12A1_Y3043]", "result": 0.594}
{"record-sequence": "QITQVCGFFDE [PPP2CA_Y127_Y127C_YF]", "result": 0.599}

// sequence CTTIQYNFMCN [TP53_Y234_H233Q_YF] , assay c-Src, phosphorylation enrichment value: 0.5

// sequence HTDDGYMPMSP [IRS1_Y612] , assay c-Src, phosphorylation enrichment value: 0.503

---

# tgt: FGFR3 (UniProt P22607)
# Sequence (P22607 whole entry, looked up): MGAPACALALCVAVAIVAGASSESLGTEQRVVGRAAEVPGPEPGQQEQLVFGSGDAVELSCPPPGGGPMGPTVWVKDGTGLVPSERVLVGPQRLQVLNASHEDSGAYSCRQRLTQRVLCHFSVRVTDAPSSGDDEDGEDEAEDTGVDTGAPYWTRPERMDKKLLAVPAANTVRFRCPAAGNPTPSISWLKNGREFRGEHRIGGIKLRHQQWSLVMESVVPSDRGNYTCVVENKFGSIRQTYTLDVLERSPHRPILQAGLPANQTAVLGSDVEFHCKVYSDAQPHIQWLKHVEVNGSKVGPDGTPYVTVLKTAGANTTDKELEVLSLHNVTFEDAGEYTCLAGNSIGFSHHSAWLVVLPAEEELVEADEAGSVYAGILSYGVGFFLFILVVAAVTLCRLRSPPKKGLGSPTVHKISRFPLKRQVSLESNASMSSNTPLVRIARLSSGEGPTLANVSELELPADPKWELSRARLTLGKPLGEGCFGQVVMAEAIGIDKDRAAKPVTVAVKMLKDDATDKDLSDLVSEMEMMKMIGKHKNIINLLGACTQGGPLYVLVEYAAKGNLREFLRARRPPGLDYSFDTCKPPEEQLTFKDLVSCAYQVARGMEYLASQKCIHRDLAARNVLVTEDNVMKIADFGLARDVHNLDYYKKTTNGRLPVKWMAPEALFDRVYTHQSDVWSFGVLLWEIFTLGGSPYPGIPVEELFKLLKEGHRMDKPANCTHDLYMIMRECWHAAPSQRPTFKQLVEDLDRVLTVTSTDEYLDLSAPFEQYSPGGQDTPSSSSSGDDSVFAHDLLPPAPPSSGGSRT
# experimental-protocol: phosphorylation enrichment, bacterial display (enrichment ratio); higher = better substrate or ligand; peptides without Tyr show the background
Measured phosphorylation enrichment by item
Output spec: single numeric token, no unit.

Here's what some known entries look like.
{"record-sequence": "LEQQKYTVTID [IKBKB_Y199_V203I]", "tgt": "FGFR3 (UniProt P22607)", "phosphorylation enrichment": 0.975}
{"record-sequence": "PLGVLYKVKVY [PTS_Y128_V124L]", "tgt": "FGFR3 (UniProt P22607)", "phosphorylation enrichment": 0.82}

In the following, a different sequence is considered.
ATDLAYFLVRE [ASL_Y375_K380E_YF] has a reported phosphorylation enrichment of 3.95
